Study system: human mAChR M1 (Homo sapiens)
Sequence (P11229 whole entry): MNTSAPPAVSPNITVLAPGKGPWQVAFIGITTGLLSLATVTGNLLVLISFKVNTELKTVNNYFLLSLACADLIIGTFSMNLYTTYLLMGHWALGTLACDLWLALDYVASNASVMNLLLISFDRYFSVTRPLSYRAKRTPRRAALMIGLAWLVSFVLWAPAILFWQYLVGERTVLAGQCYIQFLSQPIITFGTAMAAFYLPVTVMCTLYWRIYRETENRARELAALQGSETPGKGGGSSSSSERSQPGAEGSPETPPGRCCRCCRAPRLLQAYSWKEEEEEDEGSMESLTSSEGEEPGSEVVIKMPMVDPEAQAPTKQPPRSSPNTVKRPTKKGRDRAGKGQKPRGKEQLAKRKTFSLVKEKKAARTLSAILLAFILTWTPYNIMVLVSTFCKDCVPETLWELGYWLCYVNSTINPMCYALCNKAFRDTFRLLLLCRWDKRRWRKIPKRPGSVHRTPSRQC
Experiment: mAChR M1 cell-based functional assay (calcium mobilization), agonist activity upon compound addition alone
Condition notes: CHO-K1 cells expressing hM1; calcium mobilization upon compound addition, no acetylcholine
Measured attribute: EC50 (µM)
Give bare numbers, in µM.

Sample smiles	Measured attribute	Test result
Cc1c(Cc2ccc(-c3ccn(C)n3)cc2)cc(C(=O)N[C@H]2CCCC[C@@H]2O)nc1-n1cccn1	EC50	7.78

Tested system human mAChR M1 (Homo sapiens); EC50 recorded for Cc1c(Cc2ccc(-c3ccn(C)n3)cc2)cc(C(=O)N[C@H]2CCOC[C@@H]2O)nc1-n1cccn1 was 7.15

###

Consider the following compounds; for each one, report its Emax.
Study system: human mAChR M1 (Homo sapiens)
Experiment: mAChR M1 cell-based functional assay (calcium mobilization), agonist activity upon compound addition alone
Condition notes: CHO-K1 cells expressing hM1; compound alone; relative to the maximum for acetylcholine

Sample smiles	Emax
Cn1cc(-c2cc(Cc3ccc(-c4ccn(C)n4)cc3)cc(C(=O)N[C@H]3CCOC[C@@H]3O)n2)cn1	< 5%
Cn1ccc(-c2ccc(Cc3cc(C(=O)N[C@H]4CCCC[C@@H]4O)nc(-n4cccn4)c3)cc2)n1	< 5%
Cn1ccc(-c2ccc(Cc3cc(C(=O)NC4CCOCC4)nc(-n4cccn4)c3)cc2)n1	< 5%
Cc1c(Cc2ccc(-c3ccn(C)n3)nc2)cc(C(=O)N[C@H]2CCCC[C@@H]2O)nc1-n1cccn1	28%

Now turn to the next compound.
human mAChR M1 (Homo sapiens) data for Cn1ccc(-c2ccc(Cc3cc(C(=O)N[C@H]4CCC[C@@H]4O)nc(-c4ccn(C)n4)c3)cc2)n1 ; its Emax: < 5%
